Give measured speed of sound for each item. Keep answers brief.
protocol_conditions: 287.15 K; 101.33 kPa; Liquid; Pulse-echo method
Just the number in m/s, nothing appended.

For the molecule CC(C)C(=O)[O-].C[NH2+]CCO [2-hydroxy-N-methylethanaminium isobutyrate] , give its reported speed of sound.
1642.9

Give a short answer stating reported speed of sound for CCCC(=O)[O-].C[NH2+]CCO [N-methyl-2-hydroxyethylammonium butanoate] .
1650.7

Specify speed of sound for CCCCC(=O)[O-].C[NH2+]CCO [2-hydroxy-N-methylethanaminium pentanoate] and stop.
1584.5

Check the records and state speed of sound for CCC(=O)[O-].C[NH2+]CCO [2-hydroxy-N-methylethanaminium propionate]
1723.1

Read off the recorded speed of sound for C[NH2+]CCO.O=C[O-] [2-hydroxy-N-methylethanaminium formate]
1836.9
